The reported numbers originate from the domain aggregation screens of Martell et al. (2025).

- test-name: soluble fraction after stress (log2 fold change); higher = more stays soluble; pooled small domains, quantitative proteomics;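 note: 20 min heating vs room temperature control held 20 min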
- details: stress: 75 degC
measured-quantity: soluble fraction (log2)

{"construct-sequence": "HMFTEEQMDWLRLIKDHIVASLSILPEDLELTPFDRKGGLLGFYDAFGDEYEKILQEMNEELVA", "value": -0.567}
{"construct-sequence": "HMSNYLKSVEVFDPITNKWSYVSAMKVRRGYVAVVATMDRLYAIGGYDGENYLSTVEMYNPDTN", "value": 0.108}
{"construct-sequence": "HMEENNIVIYITGAVKKEGIYEIKENSRISDAIEAAGGLLENANIKDINLAYIIEDGVKIYIPTNEEVNK", "value": -0.409}
{"construct-sequence": "HMNNPLLDKVYQLMKQNNITEEEIVRAVAMKGYFPDDMKLGDYPDDFIDGVLIGAWDQIKQFIINNISPFK", "value": -0.281}
{"construct-sequence": "HMQGPDPYAVLGIDRHADERAIKRAYRKLISEHHPDRLGDLPEDMRKRAESRASEINAAYDRIKEARGF", "value": 0.0522}
{"construct-sequence": "HMQVAPDLMQRLTSQGHVDEKLSDALVHARQITNFEGRRRQMQFIGKLMRKLSEESIEAVKDALNEQRM", "value": -0.313}
{"construct-sequence": "HMTIGEALLNLRKQLGLNQTEMAANVVSTSFYSKVERNIHDIGTKDLLQILNKHQINATYFFENLN", "value": -1.82}
{"construct-sequence": "HMGAITGLQSRVAFLKGQGTITDAEAKTAMAFLPDPTDSKEVKIAKIGQAREYIMSLIENRA", "value": -0.267}
{"construct-sequence": "HMPFNLKSLADRLSHVFPGLVKMRDDIGAIIVMDKIKVTEHGVTEGGGLAADRVRAVYNEFIKEY", "value": -0.247}
{"construct-sequence": "HMTGGLTQEQISQLRMLTPQQIEQLRQLQPQQVEMLRQLRPEQVMLLTQLEPQQIMAFMRLEPSVIMQL", "value": -0.261}
{"construct-sequence": "HMSAETRSWTDAQGNQTQAVLRGFDGGDVLLQNAAGKTLRVPVKNLSEDDQRYVVLNISTLID", "value": -0.0549}
{"construct-sequence": "HMALDLNEDEKLLVELIEKAGGTAGLGELKEASGLSGKKWDKTTKNLSKEGLIKVEKNESGLWVHLT", "value": 0.0861}
{"construct-sequence": "HMKTFSFEILADTVKKQRKAKGMTQAELSEATGINRSMIGQMENMTFKPSIEQLEALSQALDFNVIDLYTE", "value": -0.325}
{"construct-sequence": "HMQQVLGDVNEDDKVDFLDAIVVLRHDAEIIQLTDNQMKAAEVNKDGKVDFLDAIMILRYDAEIIGS", "value": -0.0321}
{"construct-sequence": "HMTMTIEITVNGKTKTLVAELSLADLLRDLGMTKGRIAVELNGHIVPRSQFSSKTISNLDSIEIVQ", "value": -3.43}
{"construct-sequence": "HMEIYIDGNKYVGELRNGKPNGRGTITYTGDGSKYVGEWKNGKRYGRGKMAYTNGTTKEGVWKDDEFLYAT", "value": 0.181}
{"construct-sequence": "HMTGELEVTAAGLSPEKLLNLAAKNHITLSNVKRLSYTQLSFRIGPADYNRLKKLLPEGRYKLNVGSS", "value": -2.28}
